procedure.text: Human HepG2 cell viability dose-response assay
Format: toxicity, cell-based
observed.property: TOP

compound=O=C(CCNCC(F)(F)F)N1CCC(Nc2cccnn2)CC1 result_number=0
compound=CC(C)N1CCN(c2ccc3ccc(C(=O)NC4CCCC4)cn23)CC1.O=C(O)C(F)(F)F result_number=0
compound="OC1COCCN(Cc2cc(-c3ccccc3OC(F)(F)F)no2)C1 (configuration not stated)" result_number=0
compound="Cc1noc(C)c1C(=O)N1CCCC1c1c(C)nn(C)c1Cl (configuration not stated)" result_number=0
compound=Cc1cccc(C)c1Nc1noc2c1CN(C(=O)c1cn(C)cn1)CC2 result_number=100
compound="Cc1noc(CN2CCOC(CN(C)C)C2)n1 (configuration not stated)" result_number=0
compound="CCc1nc(CN(C)C2CCN(Cc3cnc(C)cn3)C2)no1 (configuration not stated)" result_number=0
compound=Cn1nc(C(=O)NCc2ccccn2)c2c1CCS(=O)(=O)C2 result_number=0
compound="COCC(NC(=O)c1cn2ccsc2n1)c1ccnn1C (configuration not stated)" result_number=0
compound=Cc1nn(C)cc1C(=O)Nc1cccc(CN2CCC(CO)CC2)c1 result_number=0
compound="Cc1cc(NC2CCc3nc(C(C)C)nn3C2)n2ncnc2n1 (configuration not stated)" result_number=0
compound=COc1ccccc1NC(=O)c1ccc(C)n1C result_number=100
compound=Cc1cnc(CCN(C)C(=O)c2cccc(N(C)C)c2)s1 result_number=0
compound=O=C(Nc1cc(C(F)(F)F)c[nH]c1=O)c1ccco1 result_number=100
compound="Cc1n[nH]c(C2CN(CC(=O)NCCC3=CCCCC3)CCO2)n1 (configuration not stated)" result_number=0
compound=Cc1nc(CC(C)C)cc(C(=O)N2C[C@@H](N(C)C)[C@H](C(C)C)C2)n1 result_number=0
compound=Cc1ccc(S(=O)(=O)N2C[C@H]3C[C@H](NC(=O)c4cc[nH]n4)[C@H]3C2)cc1 result_number=100
